# System: S. cerevisiae BY4741 (wild-type), vegetative growth in YPD
# ASSAY_PROCEDURE: growth sensitivity score (doubling time z-score vs DMSO controls); higher = slower growth, strongly negative scores also mark growth inhibition (complete suppression), active = hit call of the paper; in the data active = 2 or more and inactive = the rest
Where a name gives a salt, the structure may show the parent alone.
Outcome (select one): YES (active), NO (inactive)

Check out these entries, answers already filled in.
[[record]]
compound = "COCCCOc1ccnc(C[S+]([O-])c2nc3ccccc3[nH]2)c1C (stereo unspecified) [Rabeprazole] (stock concentration (mM, diluted 1:100): 10.6)"
assigned_category = "YES"

[[record]]
compound = "CC1(C)S[C@@H]2[C@H](/N=C/N3CCCCCC3)C(=O)N2[C@H]1C(=O)O [Mecillinam] (stock concentration (mM, diluted 1:100): 10)"
assigned_category = "NO"


So what was the verdict on COc1cc([C@@H]2c3cc4c(cc3[C@@H](O[C@@H]3O[C@@H]5CO[C@@H](C)O[C@H]5[C@H](O)[C@H]3O)[C@H]3COC(=O)[C@H]23)OCO4)cc(OC)c1O [Etoposide] (stock concentration (mM, diluted 1:100): 10) in this test?
NO

Follow-up item: CC1CNc2c(cccc2S(=O)(=O)N[C@@H](CCCNC(=N)N)C(=O)N2CC[C@@H](C)C[C@@H]2C(=O)O)C1 (stereo partly specified) [Argatroban] (stock concentration (mM, diluted 1:100): 10.1)
NO

Follow-up item: Clc1ccccc1C(c1ccccc1)(c1ccccc1)n1ccnc1 [Clotrimazole] (stock concentration (mM, diluted 1:100): 10)
YES

Follow-up item: CCc1oc2ccccc2c1C(=O)c1cc(Br)c(O)c(Br)c1 [Benzbromarone] (stock concentration (mM, diluted 1:100): 10)
YES

Follow-up item: O=c1c(O[C@@H]2O[C@H](CO)[C@@H](O)[C@H](O)[C@H]2O)c(-c2ccc(O)c(O)c2)oc2cc(O)cc(O)c12 [Isoquercetrin] (stock concentration (mM, diluted 1:100): 10)
NO

Follow-up item: C#C[C@]1(O)CC[C@H]2[C@@H]3[C@H](C)CC4=C(CCC(=O)C4)[C@H]3CC[C@@]21C [Tibolone] (stock concentration (mM, diluted 1:100): 10)
NO

Follow-up item: COc1ccc2c3c1O[C@H]1C[C@@H](O)C=C[C@@]31CCN(C)C2 [Galanthamine] (stock concentration (mM, diluted 1:100): 8.8)
NO

Follow-up item: Cc1cccc(C)c1NC(=O)C1CCCCN1C (stereo unspecified) [Mepivacaine hydrochloride] (stock concentration (mM, diluted 1:100): 10)
NO

Follow-up item: CCCc1nc2c(C)cc(-c3nc4ccccc4n3C)cc2n1Cc1ccc(-c2ccccc2C(=O)O)cc1 [Telmisartan] (stock concentration (mM, diluted 1:100): 10)
YES
